- Study system: recombinant Mcl-1 (residues 172-327) (Homo sapiens (Human), UniProt Q07820)
- Sequence (Q07820 172-327): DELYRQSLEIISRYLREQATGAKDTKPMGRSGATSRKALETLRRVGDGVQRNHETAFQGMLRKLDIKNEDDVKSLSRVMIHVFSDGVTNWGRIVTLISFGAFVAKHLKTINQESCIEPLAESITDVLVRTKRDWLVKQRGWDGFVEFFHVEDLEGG
- Assay explanation: Bak peptide fluorescence polarization anisotropy competition assay, Mcl-1
- Type: binding
- Measurement context: read-out: Ki for inhibition of Mcl-1
Assay readout: Ki

// worked examples, Ki included
INSERT INTO measurements (molecule, observed) VALUES
  ('CS(=O)(=O)NC(=O)c1[nH]c2cc(Cl)ccc2c1CCCOc1cccc2c1CCCC2 [Example 75]', '501 to 999 nM'),
  ('Cc1cc(OCCCc2c(C(=O)NS(=O)(=O)CCNC(=O)[C@@H]3Cc4ccccc4N3)[nH]c3ccccc23)cc(C)c1Cl [Example 168]', '101 to 299 nM');

-- ask Using known records, supply Ki for Cc1cc(OCCCc2c(C(=O)NS(=O)(=O)CCNC(=O)c3cccn3Cc3ccc(F)cc3)[nH]c3cc(Cl)ccc23)cc(C)c1Cl [Example 242]
-- reply 101 to 299 nM

-- ask Write down Ki measured for item Cc1ccccc1-c1cccc2c(CCCOc3cccc4ccccc34)c(C(=O)O)sc12 [Example 10]
-- reply 101 to 299 nM

-- ask Specify Ki for Cc1cc(OCCCc2c(C(=O)NS(=O)(=O)CCNC(=O)c3cccn3-c3ccccc3)[nH]c3ccccc23)cc(C)c1Cl [Example 172] and stop.
-- reply 101 to 299 nM

-- ask Output measured Ki for this item: Cc1cc(OCCCc2c(C(=O)NS(=O)(=O)CCNC(=O)c3ccncc3)[nH]c3ccccc23)cc(C)c1Cl [Example 153]
-- reply 1000 to 9990 nM

-- ask Give the reported Ki for this molecule. Cc1cc(OCCCc2c(C(=O)NS(=O)(=O)CCNC(=O)c3cccn3Cc3ccccc3)n(Cc3cccnc3)c3cc(Cl)ccc23)cc(C)c1Cl [Example 277]
-- reply 301 to 500 nM
